Cited source for all entries: ChEMBL document CHEMBL1201862

System: A498
Experiment notes: NCI tumour cell line growth inhibition, 48 h
The source made the active and inactive calls. Cut-off read from the data, not from the text of the source: active = GI50 up to about 1.1 µM and inactive = higher.
In this exercise, the only acceptable responses are active, inactive

Check out these entries, answers already filled in.
CC(C)OC(=O)c1ccc(NCC2=CC(=O)C=CC2=O)cc1; inactive
O=c1c2ccccc2c(=O)n2n1-c1cccc(c1)CSSCc1cccc-2c1; inactive
Clc1ccccc1/C=C/c1cscn1; inactive
COCCN1C2=CCCCC2=Nc2c(N)nc(N)nc21; inactive
COc1cc(C2c3cc4c(cc3OC(O)C2C)OCO4)cc(OC)c1OC (stereo unspecified); active
O=C1CN2C(c3ccccc3)=NN(c3ccc([N+](=O)[O-])cc3)C2(c2ccccc2)c2cc(Cl)ccc2N1CC1CC1 (stereo unspecified); inactive
CCOC(=O)C(NC(=O)CC(C)C)(N1CCN(c2cc3c(cc2F)c(=O)c(C(=O)O)cn3C2CC2)CC1)C(F)(F)F (stereo unspecified); inactive
C=C(Br)C(Cl)(CBr)CCC(Br)C(C)(C)Cl (stereo unspecified); inactive
CC(C)=CCC(OC(=O)C=C(C)C)c1cc(O)c2c(c1O)C(=O)C=CC2=O (stereo unspecified); inactive
CCOC(=O)C1Cc2c(cc3c4c(cccc24)N(C(C)=O)C3)N(C)C1 (stereo unspecified); inactive

Kindly consider the entry below.
INPUT: Recorded call for O=C1O/C(=C(\Br)c2ccc([N+](=O)[O-])cc2)c2ccccc21 ?
OUTPUT: inactive
